# SYSTEM NAME: Human PD-L1/PD-1 (Homo sapiens)
# Construct: made in house; host or cells: HEK293T
# Sequence (Q9NZQ7 with tags, fused parts or gaps): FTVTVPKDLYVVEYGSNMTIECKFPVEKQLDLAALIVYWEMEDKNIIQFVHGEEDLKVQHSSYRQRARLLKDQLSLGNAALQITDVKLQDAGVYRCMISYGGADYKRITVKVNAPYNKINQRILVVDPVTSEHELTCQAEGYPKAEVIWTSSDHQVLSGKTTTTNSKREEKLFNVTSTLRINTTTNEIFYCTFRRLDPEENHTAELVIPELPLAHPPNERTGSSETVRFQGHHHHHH
# TEST DESCRIPTION: HTRF PD-1-Ig/PD-L1-His binding assay (human PD-L1)
# SETUP CONDITIONS: cluster symbol; read-out: HTRF IC50 cluster
Positions of bridges follow the written chain, without caps; N, C: chain ends. Non-standard residues stand in square brackets, D forms with d. Residues, ends and D or L forms follow the SMILES beside them. ξ: configuration not given here. NMeNle = CCCC[C@H](NC)C(=O)O; NMeM = CN[C@@H](CCSC)C(=O)O; NMeA = CN[C@@H](C)C(=O)O; Dab = NCC[C@H](N)C(=O)O; Dap = NC[C@H](N)C(=O)O; ξC = NC(CS)C(=O)O; Sar = CNCC(=O)O
For each of the compounds below, state its IC50.

Some compounds with recorded IC50:
COMPOUND	MEASURED QUANTITY	OBSERVED MEASUREMENT
CCCC[C@H]1C(=O)N[C@@H](C)C(=O)NC(C(=O)NCC(N)=O)CSCC(=O)N[C@@H](Cc2ccc(O)cc2)C(=O)N(C)[C@@H](C)C(=O)N[C@@H](CC(N)=O)C(=O)N2CCC[C@H]2C(=O)N[C@@H](CN)C(=O)N[C@@H](CC(C)C)C(=O)N2CCC[C@H]2C(=O)N[C@@H](Cc2c[nH]c3ccccc23)C(=O)N[C@@H](CO)C(=O)N[C@@H](Cc2c[nH]c3ccccc23)C(=O)N(C)[C@@H](CCSC)C(=O)N1C (stereo partly shown) [Example 9093] ({CH2CO}-Y[NMeA]NP[Dap]LPWSW[NMeM][NMeNle]A[ξC]G-NH2; thioether N-14)	IC50	0.00676 to 0.0303 µM
CC(C)C[C@@H]1NC(=O)[C@@H](Cc2c[nH]cn2)NC(=O)[C@@H]2CCCN2C(=O)[C@@H](CC(N)=O)NC(=O)C(C)N(C)C(=O)[C@H](Cc2ccc(O)cc2)NC(=O)CSC[C@H](C(=O)NCC(N)=O)NC(=O)[C@H](C)NC(=O)[C@@H](CC(=O)O)N(C)C(=O)[C@@H](CCCCN)N(C)C(=O)[C@H](Cc2c[nH]c3ccccc23)NC(=O)[C@H](CO)NC(=O)[C@@H](Cc2c[nH]c3ccccc23)NC(=O)C2C[C@@H](O)CN2C1=O (stereo partly shown)	IC50	> 0.0305 µM
CCCC[C@H]1C(=O)N(C)[C@@H](CCCC)C(=O)N[C@@H](CCN)C(=O)N[C@H](C(=O)NCC(N)=O)CSCC(=O)N[C@@H](Cc2ccccc2)C(=O)N(C)[C@@H](C)C(=O)N[C@@H](CC(N)=O)C(=O)N2CCC[C@H]2C(=O)N[C@@H](Cc2cnc[nH]2)C(=O)N[C@@H](CC(C)C)C(=O)N(C)CC(=O)N[C@@H](Cc2c[nH]c3ccccc23)C(=O)N[C@@H](CO)C(=O)N[C@@H](Cc2c[nH]c3ccccc23)C(=O)N1C [Example 5006] ({CH2CO}-F[NMeA]NPHL[Sar]WSW[NMeNle][NMeNle][Dab]CG-NH2; thioether N-14)	IC50	0.000385 to 0.00674 µM

// switching to the query compound
Briefly, IC50 measured for CCCC[C@H]1C(=O)N(C)[C@@H](CCCC)C(=O)N[C@@H](CCCNC(=N)N)C(=O)N[C@H](C(=O)NCC(N)=O)CSCC(=O)N[C@@H](Cc2ccccc2)C(=O)N(C)[C@@H](C)C(=O)N[C@@H](CC(N)=O)C(=O)N2CCC[C@H]2C(=O)N[C@@H](CC(N)=O)C(=O)N[C@@H](CC(C)C)C(=O)N(C)CC(=O)N[C@@H](Cc2c[nH]c3ccccc23)C(=O)N[C@@H](CO)C(=O)N[C@@H](Cc2c[nH]c3ccccc23)C(=O)N1C [Example 1063] ({CH2CO}-F[NMeA]NPNL[Sar]WSW[NMeNle][NMeNle]RCG-NH2; thioether N-14) : > 0.0305 µM
